B1: tRNA (parent)
chain: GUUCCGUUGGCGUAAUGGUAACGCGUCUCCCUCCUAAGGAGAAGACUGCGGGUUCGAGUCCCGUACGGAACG

Variants of: B1
assay.summary: yeast fitness relative to wild type (ratio to wild type); higher = fitter; tRNA-Arg(CCU), competitive growth, 37 C, YPD
Fewer inactive variants are shown than the library holds.
experimental.endpoint: yeast fitness

I have 8 variants here; please give me yeast fitness for each one.
1. C4U C11U A15G C34U U54C C55U
2. C5G C33U G44C
3. A21U G48C
4. A20C G41A G58U
5. U3G A15G C34A A70G
6. U16C G18A C24G A45U U47C
7. C11A A43G G50C G56C A65G
8. C22G U47G C66U A69C

[0.501, "≤ 0.5", 0.586, 0.706, 0.555, "≤ 0.5", "≤ 0.5", "≤ 0.5"]

I have 3 variants here; please give me yeast fitness for each one.
1. C31U A45C C61G A65C
2. U28A C31U
3. C22A U26A A36U G56C C60G

["≤ 0.5", 0.7, "≤ 0.5"]
